Biological target: Human M4 (Homo sapiens)
Sequence (P08173 whole entry): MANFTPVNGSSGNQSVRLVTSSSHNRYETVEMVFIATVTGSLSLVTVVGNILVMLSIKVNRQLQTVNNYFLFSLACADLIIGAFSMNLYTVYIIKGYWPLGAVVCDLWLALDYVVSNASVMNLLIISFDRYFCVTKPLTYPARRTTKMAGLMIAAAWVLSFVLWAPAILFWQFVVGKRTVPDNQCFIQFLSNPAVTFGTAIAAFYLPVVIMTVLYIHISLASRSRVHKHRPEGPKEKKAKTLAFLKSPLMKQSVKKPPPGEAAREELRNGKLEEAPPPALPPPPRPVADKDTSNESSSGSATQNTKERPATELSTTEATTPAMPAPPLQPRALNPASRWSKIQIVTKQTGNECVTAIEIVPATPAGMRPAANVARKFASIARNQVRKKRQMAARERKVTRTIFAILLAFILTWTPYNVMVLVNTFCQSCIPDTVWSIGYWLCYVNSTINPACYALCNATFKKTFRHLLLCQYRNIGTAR
Experiment: mAChR M4 cell-based functional assay (calcium flux, antagonist mode)
Details: M4/Gqi5/CHO-K1 cells; concentration-dependent decrease of the EC80 acetylcholine response
Endpoint name: pIC50
The value called pIC50 is obtained by taking minus log10 of the concentration in mol/L.

Fc1ccc(Cl)c(-c2ccc(OC3CC4(CCN(Cc5ccccc5)CC4)C3)nn2)c1 | 5.90

Ask: Entry under review: Cc1cnn(C)c1-c1ccc(OC2CC3(CCN(CC(C)C(C)(C)C)CC3)C2)nn1 (centres unmarked) . Reported pIC50?
Reply: 6.60

Ask: What pIC50 value was documented for this compound, `Cc1cccnc1CN1CCC2(CC1)CC(Nc1ccc(-c3c(C)cnn3C)nn1)C2` ?
Reply: 5.95

Ask: Quick one: pIC50 of Cc1cnn(C)c1-c1ccc(OC2CC3(CCN(CC4CC5C=CC4C5)CC3)C2)nn1 (centres unmarked) ?
Reply: 6.80

Ask: I have this compound here, `Fc1ccc(Cl)c(-c2ccc(OCC3CC4(CCN(CC5CCCCC5)CC4)C3)nn2)c1` , and I need its recorded pIC50.
Reply: 5.83

Ask: // query pIC50 value for entry `Cc1cnn(C)c1-c1ccc(NC2CC3(CCN(CCC(C)(C)C)CC3)C2)nn1`
Reply: 7.05

Ask: Entry under review: `CC(C)(C)CCN1CCC2(CC1)CC(CNc1ccc(-c3cc(F)ccc3Cl)nn1)C2` . Reported pIC50?
Reply: 6.33
